# Test system: Danio rerio Tg(wt1b:EGFP) embryo, pronephros
# MEASUREMENT PROTOCOL: glomerular width (mean of left and right), fold change vs DMSO control; higher = wider glomerulus
# CONDITION DESCRIPTION: 25 µM; exposure: 24-48 hpf
Where a name gives a salt, the structure may show the parent alone.
Assign fulfilled whenever glomerular width does not fall below 1; assign not fulfilled whenever it does.

(Q) Has CCCC(C)(COC(N)=O)COC(=O)NC(C)C (stereo not drawn) a recorded glomerular width greater than or equal to 1?
(A) fulfilled

(Q) Has C[N+]1(C)CCOC(O)(c2ccc(-c3ccc(C4(O)C[N+](C)(C)CCO4)cc3)cc2)C1 (stereo not drawn) [Hemicholinium bromide] a recorded glomerular width greater than or equal to 1?
(A) not fulfilled

(Q) Has CNCC(O)c1ccc(O)cc1 (racemic) [(+,-)-Synephrine] a recorded glomerular width greater than or equal to 1?
(A) not fulfilled

(Q) Has `C[C@H](N)[C@H](O)c1ccc(O)c(O)c1` a recorded glomerular width greater than or equal to 1?
(A) fulfilled

(Q) Has CN1CCN(C(=O)OC2c3nccnc3C(=O)N2c2ccc(Cl)cn2)CC1 (stereo not drawn) a recorded glomerular width greater than or equal to 1?
(A) not fulfilled

(Q) Has `C[C@]12CC[C@@H]3c4ccc(OC(=O)N(CCCl)CCCl)cc4CC[C@H]3[C@@H]1CC[C@@H]2O` a recorded glomerular width greater than or equal to 1?
(A) not fulfilled

(Q) Has O[C@@H]1CCCC[C@H]1N1CCC(c2ccccc2)CC1 [L(-)-vesamicol hydrochloride] a recorded glomerular width greater than or equal to 1?
(A) not fulfilled

(Q) Has `CC(=O)[C@H]1CC[C@H]2[C@@H]3CC[C@H]4C[C@H](O)CC[C@]4(C)[C@H]3C(=O)C[C@]12C` a recorded glomerular width greater than or equal to 1?
(A) not fulfilled

(Q) Has Clc1ccc(C(OCCN2CCCCC2)c2ccccc2)cc1 (stereo not drawn) [Cloperastine hydrochloride] a recorded glomerular width greater than or equal to 1?
(A) fulfilled
